- system_name: PPARα (Homo sapiens (Human), UniProt Q07869)
- Sequence (Q07869 whole entry, species assumed): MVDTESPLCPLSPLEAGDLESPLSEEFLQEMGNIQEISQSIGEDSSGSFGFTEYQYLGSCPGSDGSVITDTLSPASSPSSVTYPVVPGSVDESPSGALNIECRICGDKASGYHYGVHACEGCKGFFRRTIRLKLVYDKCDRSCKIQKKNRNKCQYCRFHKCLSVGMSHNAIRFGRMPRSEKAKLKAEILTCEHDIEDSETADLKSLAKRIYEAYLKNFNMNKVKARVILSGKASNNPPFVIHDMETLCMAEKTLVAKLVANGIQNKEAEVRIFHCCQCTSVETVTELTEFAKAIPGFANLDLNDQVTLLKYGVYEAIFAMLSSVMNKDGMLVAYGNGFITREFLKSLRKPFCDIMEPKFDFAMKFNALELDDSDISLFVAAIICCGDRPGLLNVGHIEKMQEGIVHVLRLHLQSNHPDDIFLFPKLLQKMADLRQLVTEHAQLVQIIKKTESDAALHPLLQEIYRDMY
- Sequence (P19793 whole entry partner, species assumed): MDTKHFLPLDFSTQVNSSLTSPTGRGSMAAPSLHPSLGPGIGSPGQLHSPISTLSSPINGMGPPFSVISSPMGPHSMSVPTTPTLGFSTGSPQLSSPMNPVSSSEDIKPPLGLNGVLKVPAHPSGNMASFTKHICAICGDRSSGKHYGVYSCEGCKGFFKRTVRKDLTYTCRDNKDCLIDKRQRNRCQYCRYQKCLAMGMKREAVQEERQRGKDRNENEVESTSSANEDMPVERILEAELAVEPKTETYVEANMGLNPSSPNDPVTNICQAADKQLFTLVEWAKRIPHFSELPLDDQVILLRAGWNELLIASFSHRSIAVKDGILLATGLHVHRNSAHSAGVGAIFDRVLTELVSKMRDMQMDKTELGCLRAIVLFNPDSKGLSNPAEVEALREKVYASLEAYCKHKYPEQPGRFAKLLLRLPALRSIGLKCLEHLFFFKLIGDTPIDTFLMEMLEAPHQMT
- protocol_notes: Nuclear receptor reporter gene (luciferase) screening model, PPARα activation in HepG2 cells
- Type: cell-based
- assay_conditions: 10 uM; HepG2; solvent control = 1
measurement_label: Experiment results (relative activation fold) PPARα

// below: answered compounds
CCc1cc(OCCc2nc(-c3ccc(C(F)(F)F)cc3)oc2C)ccc1CCC(=O)O [Compound 3]; 1.79
CCc1cc(OCCc2nc(-c3ccc(C)cc3)oc2C)ccc1CCC(=O)O [Compound 5]; 1.91

[a] CCc1cc(OCCc2nc(-c3ccc(F)cc3)oc2C)ccc1CCC(=O)O [Compound 1]
[b] CCc1cc(OCCc2nc(-c3ccc(C(C)(C)C)cc3)oc2C)ccc1CCC(=O)O [Compound 4]
Q) Endpoint returns the identifier whose Experiment results (relative activation fold) PPARα is numerically larger, either a or b . API: response body contains the label of the selected item.
A) b

Ref: patent US9346770B2
